Assay: The in vitro binding constant in presence of Li+ was reported
Assay type: functional
Below, each entry is listed alongside its reported Kd.
Return type: number; implicit unit mM.

STRUCTURE_SMILES	ASSAY_VALUE
COC(=O)CN1CCOCCOCCOc2cc(-c3c4cc(F)c(=O)cc-4oc4cc(O)c(F)cc34)ccc21	438
COC(=O)CN1CCOCCOCCOCCOc2cc(-c3c4cc(F)c(=O)cc-4oc4cc(O)c(F)cc34)ccc21	142

Write down Kd measured for item "COC(=O)CN1CCOCCOCCOCCOc2cc(NC(=O)c3ccc(-c4c5cc(F)c(=O)cc-5oc5cc(O)c(F)cc45)c(C(=O)O)c3)ccc21"
65
